tested.target: Sentrin-specific protease 6 (Homo sapiens, UniProt Q9GZR1);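 further: Luminescence-based dose-response confirmatory assay of SENP6 inhibition, following up an ultra-high-throughput screen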
Sequence (Q9GZR1 whole entry): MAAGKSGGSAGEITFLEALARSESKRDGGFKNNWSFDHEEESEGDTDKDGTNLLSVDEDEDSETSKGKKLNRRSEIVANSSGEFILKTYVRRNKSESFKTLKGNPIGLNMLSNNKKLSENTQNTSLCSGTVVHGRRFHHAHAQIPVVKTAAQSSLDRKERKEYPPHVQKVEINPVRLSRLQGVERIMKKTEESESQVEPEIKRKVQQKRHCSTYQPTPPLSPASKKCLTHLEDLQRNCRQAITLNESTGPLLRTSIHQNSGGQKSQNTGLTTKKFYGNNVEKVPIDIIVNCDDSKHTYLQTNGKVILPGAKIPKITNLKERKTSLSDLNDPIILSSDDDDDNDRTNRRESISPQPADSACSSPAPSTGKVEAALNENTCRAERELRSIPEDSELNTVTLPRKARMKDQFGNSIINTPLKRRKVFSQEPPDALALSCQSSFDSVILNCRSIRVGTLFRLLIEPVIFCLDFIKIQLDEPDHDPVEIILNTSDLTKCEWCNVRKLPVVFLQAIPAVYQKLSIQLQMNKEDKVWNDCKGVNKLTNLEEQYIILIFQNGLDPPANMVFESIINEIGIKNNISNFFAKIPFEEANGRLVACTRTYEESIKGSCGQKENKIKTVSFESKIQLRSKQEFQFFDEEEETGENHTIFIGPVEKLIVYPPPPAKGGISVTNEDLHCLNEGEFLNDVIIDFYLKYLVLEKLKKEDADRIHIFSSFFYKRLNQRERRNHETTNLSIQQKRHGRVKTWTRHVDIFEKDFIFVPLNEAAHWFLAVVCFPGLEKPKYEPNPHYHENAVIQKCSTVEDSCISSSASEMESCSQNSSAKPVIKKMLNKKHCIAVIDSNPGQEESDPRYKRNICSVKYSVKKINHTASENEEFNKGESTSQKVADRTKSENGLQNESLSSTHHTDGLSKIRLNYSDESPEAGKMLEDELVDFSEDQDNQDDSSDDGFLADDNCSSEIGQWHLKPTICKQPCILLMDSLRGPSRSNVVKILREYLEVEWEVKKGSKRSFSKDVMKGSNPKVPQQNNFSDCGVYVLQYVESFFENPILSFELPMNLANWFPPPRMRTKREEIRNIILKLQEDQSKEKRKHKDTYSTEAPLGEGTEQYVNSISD
Type: functional
The source made the active and inactive calls.
Outcome codes: active, inactive

• CC(C)C(=O)Nc1ccc2nn(-c3ccc(F)cc3)nc2c1 = active
• COC(=O)c1ccc(NC(=O)Nc2ccc(F)c(Cl)c2)cc1 = inactive
• Cc1cc(C(=O)N/N=C/C(Cl)=C/c2ccccc2)c(C)o1 = active
• CCn1c(O)c(N=Nc2ccc3ccccc3n2)c2ccccc21 = active
• NC(=O)c1ccccc1NC(=O)/C=C/c1c(Cl)cccc1Cl = inactive

* * *

tested.target: Corticotropin-releasing factor receptor 2/Corticotropin-releasing factor-binding protein (Homo sapiens, UniProt P24387+Q13324)
Sequence (Q13324 whole entry): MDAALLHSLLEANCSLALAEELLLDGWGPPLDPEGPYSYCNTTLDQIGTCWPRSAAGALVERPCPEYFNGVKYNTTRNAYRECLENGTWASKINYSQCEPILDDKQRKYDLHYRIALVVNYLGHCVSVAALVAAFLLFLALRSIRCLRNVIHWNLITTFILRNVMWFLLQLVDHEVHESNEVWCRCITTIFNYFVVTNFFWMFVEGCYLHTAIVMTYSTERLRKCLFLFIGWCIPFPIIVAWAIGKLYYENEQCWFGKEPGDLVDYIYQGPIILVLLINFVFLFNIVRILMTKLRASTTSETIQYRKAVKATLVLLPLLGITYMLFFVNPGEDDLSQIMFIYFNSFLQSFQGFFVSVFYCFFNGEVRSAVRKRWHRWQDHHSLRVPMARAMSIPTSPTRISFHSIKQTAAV
Sequence (P24387 whole entry): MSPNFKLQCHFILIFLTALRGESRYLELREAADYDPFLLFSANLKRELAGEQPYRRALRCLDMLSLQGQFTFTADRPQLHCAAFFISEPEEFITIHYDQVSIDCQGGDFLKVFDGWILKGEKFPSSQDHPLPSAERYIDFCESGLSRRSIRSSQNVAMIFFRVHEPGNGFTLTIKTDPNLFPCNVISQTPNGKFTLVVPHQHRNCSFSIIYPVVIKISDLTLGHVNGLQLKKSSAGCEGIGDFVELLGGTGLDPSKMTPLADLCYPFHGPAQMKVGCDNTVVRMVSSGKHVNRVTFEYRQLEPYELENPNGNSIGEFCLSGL
test.name: activators of CRF receptor 2 with binding protein – uHTS hits, confirmation (AID 602473)
Format: functional
condition.notes: read-out: EC50_Mean
Calls of active or inactive are those of the source.
readout.name: EC50

• CC(Oc1ccc(Br)cc1)C(=O)N1CCc2ccccc21 (stereo not drawn) = 8.32 µM (active)
• CCOc1ccc(CCNC(=O)C2CCCN(c3ncnc4c3nc3n4CCCCC3)C2)cc1 (stereo not drawn) = > 53 µM (inactive)
• O=C(O)C(c1ccccc1)C1(O)CCCC1 (stereo not drawn) = > 53 µM (inactive)

Numbers sourced from ChEMBL document CHEMBL1201862.
